Would you mind telling me the reported inhibition of each entry?
Procedure details: HTRF signal interference by compounds, confirmation, artefact control for SUMOylation inhibitor project, biochemical, uHTS (AID 2069)
Experimental conditions: HTRF interference counterscreen, fluorescence, at 35 µM, stronger effect = higher value
Out of some 1,200 compounds screened, about 210 (18%) were called active. A selection follows.
Report as a plain number; the unit % is understood.

Query :: For the compound `CCCC(=O)Nc1ccc2oc(-c3cncc(Br)c3)nc2c1` , report inhibition.
Result :: 19.6

Query :: For the compound `Nc1c(C(=O)Nc2ccccc2)sc2nc(-c3ccco3)ccc12` , report inhibition.
Result :: 50.1

Query :: For the compound `O=C(N/N=C/c1ccc(F)cc1)c1cc(-c2ccco2)nc2ccccc12` , report inhibition.
Result :: 13

Query :: For the compound `CCOC(=O)c1c2ccc(OCC(=O)NN)cc2n2ccccc12` , report inhibition.
Result :: 29.6

Query :: For the compound `O=C(Nc1ccc2oc(-c3ccc4ccccc4c3)nc2c1)c1ccc2c(c1)OCCO2` , report inhibition.
Result :: 8.15

Query :: For the compound COCCCn1c(C(=O)N2CC(C)OC(C)C2)cc2c(=O)n3ccccc3nc21 (centres undefined) , report inhibition.
Result :: 46.4

Query :: For the compound CC(=O)NC1C(=O)N(CCN2CCOCC2)c2ccc(F)cc21 (centres undefined) , report inhibition.
Result :: 28.6

Query :: For the compound `CCOCCCNC1=C(Cl)C(=O)c2ccccc2C1=O` , report inhibition.
Result :: -7.4

Query :: For the compound `N#Cc1c2ccc(OCC(N)=O)cc2n2ccccc12` , report inhibition.
Result :: 35.8

Query :: For the compound `Cn1nccc1NC(=O)Nc1cccc(Cl)c1` , report inhibition.
Result :: 42.6

Query :: For the compound CC(=O)NC1C(=O)N(CCN2CCOCC2)c2ccc(Cl)cc21 (centres undefined) , report inhibition.
Result :: 25.8

Query :: For the compound `S=c1[nH]nc(-c2cc(-c3ccccc3)n[nH]2)n1/N=C/c1cccc(Cl)c1` , report inhibition.
Result :: -8.55

Query :: For the compound `Cn1nccc1NC(=O)Nc1cccc(Br)c1` , report inhibition.
Result :: 46.4

Query :: For the compound `Nc1ccc2nc(-c3ccc(-c4nc5ccc(N)cc5[nH]4)cc3)[nH]c2c1` , report inhibition.
Result :: 25.4

Query :: For the compound `COCCCNC(=O)c1cccn2c(=O)c3cc4ccccc4cc3nc12` , report inhibition.
Result :: 13.3

Query :: For the compound `Nc1ccc2nn(-c3ccccc3)nc2c1` , report inhibition.
Result :: 66

Query :: For the compound `COc1ccccc1NC(=O)c1sc2nc(-c3ccco3)ccc2c1N` , report inhibition.
Result :: 26.8

Query :: For the compound CCc1ccc2c(c1)C(NC(C)=O)C(=O)N2CCN1CCOCC1 (centres undefined) , report inhibition.
Result :: 30.8

Query :: For the compound `Cc1ccc(C(=O)Nc2nnc(CC(=O)N/N=C/c3ccc(O)c(O)c3)s2)cc1` , report inhibition.
Result :: -1

Query :: For the compound `Nc1c(C(=O)Nc2ccc(F)cc2)sc2nc(-c3ccco3)ccc12` , report inhibition.
Result :: 47

Query :: For the compound `Nc1ccc(-c2nc3ccc(N)cc3[nH]2)cc1` , report inhibition.
Result :: 66.3

Query :: For the compound `O=C(N=Nc1c(O)n(Cc2ccccc2)c2ccccc12)c1cc2ccccc2cc1O` , report inhibition.
Result :: 10.8

Query :: For the compound `COc1ccc(/C=C(\C#N)C(=O)OCC(=O)NCc2ccccc2Cl)cc1` , report inhibition.
Result :: 6.4

Query :: For the compound `Cc1ccc(C)c(-c2nc3ccc(N)cc3[nH]2)c1` , report inhibition.
Result :: 57

Query :: For the compound `Brc1ccc(OCCN2CCOCC2)cc1` , report inhibition.
Result :: -8.15

Query :: For the compound `CC1CCN(Cc2cc(=O)oc3cc(O)c(Cl)cc23)CC1` , report inhibition.
Result :: 50.5

Query :: For the compound Cc1ccc(N2CSC3=C(C#N)C(c4cccs4)CC(=O)N3C2)cc1 (centres undefined) , report inhibition.
Result :: -28.4

Query :: For the compound `O=C(CSc1nnc(-c2ccco2)c(-c2ccco2)n1)c1ccccc1` , report inhibition.
Result :: 9

Query :: For the compound `CCOC(=O)c1c(NC(=O)c2ccco2)n(C2CCCCC2)c2nc3ccccc3nc12` , report inhibition.
Result :: 21.2

Query :: For the compound `O=[N+]([O-])c1cc2c(cc1/C=N/n1c(-c3ccccn3)n[nH]c1=S)OCO2` , report inhibition.
Result :: 0.15

Query :: For the compound `COc1cc(/C=C2/C(=O)N(c3ccc([N+](=O)[O-])cc3)N=C2N2CCOCC2)ccc1O` , report inhibition.
Result :: -19.4

Query :: For the compound `Cc1nn(-c2ccccc2)c2sc(C(=O)NNC(=O)COc3ccccc3)cc12` , report inhibition.
Result :: 10.2

Query :: For the compound `CCOc1ccc(-n2c(SCC(=O)Nc3ccc(CC)cc3)nc3n[nH]c(C)c3c2=N)cc1` , report inhibition.
Result :: 23.6

Query :: For the compound `N#C/C(=C/c1ccc(-c2cc(C(=O)O)cc(C(=O)O)c2)o1)c1nc2ccccc2s1` , report inhibition.
Result :: 13.9

Query :: For the compound `COc1ccc(-c2nc3c(c(SCC(=O)Nc4cccc(O)c4)n2)Cc2c(CO)cnc(C)c2O3)cc1` , report inhibition.
Result :: -1.05

Query :: For the compound `CC1N(C)c2cccc3cccc(c23)N1C` , report inhibition.
Result :: -9.25

Query :: For the compound `O=C(NC(=S)Nc1cccc2c(O)cccc12)c1ccccc1[N+](=O)[O-]` , report inhibition.
Result :: -1.65

Query :: For the compound `NS(=O)(=O)c1ccc(NC(=O)c2ccc(-c3ccccc3)cc2)cc1` , report inhibition.
Result :: -3.1

Query :: For the compound `COc1ccc(-n2c(NC(=O)c3ccc(Br)o3)c(C#N)c3nc4ccccc4nc32)cc1` , report inhibition.
Result :: 12.1

Query :: For the compound `Cc1ccc(C)c(OCC(=O)Nc2nonc2NC(=O)COc2cc(C)ccc2C)c1` , report inhibition.
Result :: -13.6

Query :: For the compound `COCCCn1c(C(=O)N2CCOCC2)cc2c(=O)n3ccccc3nc21` , report inhibition.
Result :: 52.1

Query :: For the compound `O=c1c2ccccc2nc(COc2ccccc2)n1/N=C/c1cc([N+](=O)[O-])ccc1O` , report inhibition.
Result :: -7.1

Query :: For the compound CCOc1ccc2c(c1)C(NC(C)=O)C(=O)N2CCN1CCOCC1 (centres undefined) , report inhibition.
Result :: 37.8

Query :: For the compound `O=C(Nc1ccc2oc(=O)ccc2c1)c1ccc(-c2cccc(Cl)c2)o1` , report inhibition.
Result :: 12.1
